- measurement_notes: binders of probe aHhip on microarray, primary screen, stem cell growth factor project, biochemical, small-molecule microarray, fluorescence 635/667 (AID 1087);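 further: score merges spot fluorescence at 667nm with spot signal to noise ratio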
- measurement_conditions: higher = more signal
Classification field: enter met for composite z-score values not below -0.1, not met for values below it.

- compound: "CN(C)CCCC[C@@H]1NC(=O)[C@@H]2C[C@H](C(=O)NCCCCCCNC(=O)CS)[C@H](c3cccc(OCCO)c3)N2C1=O"
  qualitative_label: "met"
- compound: "C=C(COC)/C(=C/C[C@H](OC(=O)c1ccncc1)c1ccc(OCCO)cc1)c1cc(C(=O)OC)ccc1OC"
  qualitative_label: "met"
- compound: "COCCOC(=O)N1C(=O)[C@@]2(c3cc(C#CC4(O)CCCCCC4)ccc31)[C@H](c1ccc(OCCO)cc1)N1[C@H](c3ccccc3)[C@H](c3ccccc3)OC(=O)[C@H]1[C@@H]2C(N)=O"
  qualitative_label: "met"

Ask: Textbook exercise: given the entry C[N+](C)(C)CCCCCCNC(=O)[C@H]1C[C@H]2C(=O)NCC(=O)N2[C@H]1c1cccc(OCCO)c1 , state whether its composite z-score is greater than or equal to -0.1.
Result: not met

Ask: How about this compound: CN(C)CCCC[C@@H]1NC(=O)[C@@H]2C[C@H](C(=O)NCc3ccc(F)cc3)[C@H](c3ccc(O)cc3)N2C1=O
Result: not met

Ask: How about this compound: NC(=O)NCC#Cc1ccc2c(c1)[C@]1(C(=O)N2)[C@H](C(=O)N2CCCCCCC2)[C@H]2C(=O)O[C@H](c3ccccc3)[C@H](c3ccccc3)N2[C@@H]1c1ccc(O)cc1
Result: met

Ask: How about this compound: COCCCNC(=O)[C@@H]1c2ccccc2C(=O)N(C2CCCCC2)[C@H]1c1ccc(CO)cc1
Result: not met

Ask: How about this compound: CC(C)CNC(=O)[C@@H]1c2ccccc2C(=O)N(C2Cc3ccccc3C2)[C@H]1c1ccc(CO)cc1
Result: not met

Ask: How about this compound: O=C(NCCO)C1=C[C@H](Oc2ccccc2I)[C@@H](O)[C@H](NCc2ccc(F)cc2)C1
Result: met

Ask: How about this compound: CCOC(=O)C1=CCC(c2cc3ccccc3[nH]2)N(S(=O)(=O)c2ccccc2[N+](=O)[O-])C1 (stereo unspecified)
Result: met

Ask: How about this compound: CC(C)CNC(=O)[C@@H]1c2ccccc2C(=O)N(C(C)C)[C@H]1c1ccc(CO)cc1
Result: not met

Ask: How about this compound: COC(=O)[C@@]1(Cc2ccc(F)cc2)[C@H]2c3cc(C(=O)N(C)C)n(CCn4cc([N+](=O)[O-])nc4C)c3C[C@H]2CN1C(=O)c1ccccc1
Result: not met

Ask: How about this compound: C=CCNC(=O)[C@@H]1[C@H]2C(=O)O[C@H](c3ccccc3)[C@H](c3ccccc3)N2[C@H](c2ccc(O)cc2)[C@@]12C(=O)Nc1ccc(C#CC3(O)CCCCCC3)cc12
Result: met

Ask: How about this compound: COCCOC(=O)N1C(=O)[C@@]2(c3cc(C#CC4(O)CCCCCC4)ccc31)[C@H](C(=O)N1CCc3cc(OC)c(OC)cc3C1)[C@H]1C(=O)O[C@H](c3ccccc3)[C@H](c3ccccc3)N1[C@@H]2c1ccc(O)cc1
Result: met

Ask: How about this compound: COCCOC(=O)N1C(=O)[C@@]2(c3cc(C#CC4(O)CCCCCC4)ccc31)[C@H](c1ccccc1OCCO)N1[C@H](c3ccccc3)[C@H](c3ccccc3)OC(=O)[C@H]1[C@@H]2C(=O)N1CCCCCCC1
Result: met

Ask: How about this compound: COc1ccc(CCNC(=O)[C@@]2(Sc3ccc(C)cc3)CC(=O)N(C(C)C)[C@@H]2c2ccc(CO)cc2)cc1
Result: met

Ask: How about this compound: C=CCOC(=O)[C@@H]1[C@H]2C(=O)O[C@H](c3ccccc3)[C@H](c3ccccc3)N2[C@H](c2ccc(OCCOC(=O)[C@H]3C[C@H]4C(=O)NCC(=O)N4[C@H]3c3ccc(O)cc3)cc2)[C@@]12C(=O)Nc1ccc(I)cc12
Result: not met

Ask: How about this compound: CC[C@H](C)C(=O)O[C@H]1CC[C@]2(C)C3=C(CCC2C1(C)C)[C@]1(C)CC[C@H]([C@H](C)CCCC(C)C)[C@@]1(C)CC3 (stereo partly specified)
Result: met

Ask: How about this compound: COC(=O)[C@@]1(Cc2ccc(F)cc2)[C@H]2c3cc(C(=O)N(C)C)n(CCN4CCOCC4)c3C[C@H]2CN1C(=O)c1ccccc1
Result: met

Ask: How about this compound: C=C(COC)C(=O)CC[C@@H](OC(=O)c1cccnc1)c1cccc(OCCO)c1
Result: not met

====

- measurement_notes: fission yeast growth modulation, primary screen, strain 972, OD600, 24 h, no modulator (AID 1090);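 further: basal condition with compound alone and no growth modifier present; test concentration not given here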
- measurement_conditions: S. pombe 972 growth, called active from +8 up or from −8 down
Calls of active or inactive are those of the source.
Could you please pick one outcome from this set? active, inactive

Here's what some known entries look like.
- molecule: "CCCC=C(CCC)[C@@H](NC(=O)c1ccco1)c1ccc(C(=O)OC)cc1"
  qualitative_label: "inactive"
- molecule: "O=C1OCCC=C[C@H]2OC34C=CCN(c5ccc(Cl)cc5)C(=O)[C@H]3N(CCO)C(=O)[C@@H]4C12 (stereo not given in full)"
  qualitative_label: "inactive"

Ask: GET /call?item= COCCOC(=O)N1C(=O)[C@@]2(c3cc(C#CCCO)ccc31)[C@H](c1ccccc1OCCO)N1[C@H](c3ccccc3)[C@H](c3ccccc3)OC(=O)[C@H]1[C@@H]2C(=O)N1CCc2cc(OC)c(OC)cc2C1 returns the recorded outcome of this test.
Result: inactive

Ask: How about this molecule: C=CCN1C(=O)[C@]2(O[C@H](CCO)[C@@H]([Si](C)(C)c3ccc(OC)cc3)[C@@H]2C)c2ccccc21
Result: inactive

Ask: How about this molecule: C=CCC(OC(C)=O)[C@@H]1[C@@H](N(Cc2ccc(-c3ccccc3)cc2)C(=O)c2cccc3ccccc23)c2cc(OCCCO)ccc2N1C(=O)c1ccc2ccccc2c1 (stereo not given in full)
Result: inactive

Ask: How about this molecule: Cc1ccc(F)cc1S(=O)(=O)N[C@@H]1CCN(Cc2ccc3c(c2)OCO3)C1
Result: inactive

Ask: How about this molecule: C=C(COC)C(=O)CC[C@@H](OC(C)=O)c1ccc(OCCO)cc1
Result: inactive

Ask: How about this molecule: CCCCN1CC=CC23O[C@@H]4C=CCOC(=O)[C@@H]4[C@H]2C(=O)N(C(CO)C(C)C)[C@@H]3C1=O (stereo not given in full)
Result: inactive

====

- Tested on: Wnt5a (protein binding on small-molecule microarray)
- measurement_notes: Wnt5a binders on small-molecule microarray, primary screen, biophysical, 635/667 nm fluorescence (AID 1142);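 further: fluorescence read at 667 nm with signal to noise per printed feature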
- measurement_conditions: 635 nm fluorescence, higher = more signal
quantity_measured: composite z-score
# output: bare number, no unit

- molecule: "COc1ccc([Si](C)(C)[C@@H]2[C@@H](CCO)O[C@]3(C(=O)N(Cc4ccccc4)c4ccc(N5C(=O)c6ccccc6Oc6ccccc65)cc43)[C@H]2C)cc1"
  composite z-score: -0.204
- molecule: "O=C1OCCC/C=C\\[C@H]2OC34C=CCN(Cc5ccccc5)C(=O)[C@H]3N(CCCCCO)C(=O)[C@@H]4C12 (some centres undefined)"
  composite z-score: -0.238
- molecule: "C[N+](C)(C)CCCC[C@@H]1NC(=O)[C@H]2C[C@@H](C(=O)NCCCCCNC(=O)CS)[C@@H](c3ccc(O)cc3)N2C1=O"
  composite z-score: 0.084
- molecule: "O=C1O[C@@H](c2ccccc2)[C@@H](c2ccccc2)N2[C@@H](c3ccc(O)cc3)[C@]3(C(=O)Nc4ccc(C#CC5=CCCCC5)cc43)[C@@H](C(=O)N3CCCCCCC3)[C@H]12"
  composite z-score: 0.0888
- molecule: "COc1ccc([Si](C)(C)[C@H]2[C@H](CCO)O[C@@]3(C(=O)N(Cc4ccccc4)c4ccc(N(C=O)c5ccccc5)cc43)[C@@H]2C)cc1"
  composite z-score: 0.078
- molecule: "CC(C)(C)OC(=O)CC[C@]1(C(=O)N2CCOCC2)N=C(c2ccc(OCCCO)cc2)O[C@H]1c1ccccc1CN=[N+]=[N-]"
  composite z-score: 1.07
- molecule: "CCOC(=O)C1=CC[C@@H](c2ccccc2Cl)N(S(=O)(=O)c2ccc(C)cc2)[C@H]1c1cccc(OC)c1"
  composite z-score: 0.142
- molecule: "CC(C)N1CC=CC23O[C@@H]4C=CCCOC(=O)C4[C@H]2C(=O)N(CCCCCO)[C@@H]3C1=O (some centres undefined)"
  composite z-score: -0.135
- molecule: "COc1ccc(CCNC(=O)[C@@H]2c3ccccc3C(=O)N(CC34CC5CC(CC(C5)C3)C4)[C@H]2c2ccc(CO)cc2)cc1"
  composite z-score: 0.788
- molecule: "COC(=O)[C@@]1(Cc2ccc(OC)cc2)[C@H]2c3cc(C(=O)N(C)C)n(Cc4ccsc4Br)c3C[C@H]2CN1C(=O)c1ccccc1"
  composite z-score: 0.286

Ask: Data request, read-out composite z-score, for COCC(=C=CC[C@@H](O)c1cccc(OCCO)c1)C[C@@H](O)COCc1ccccc1
Result: 0.515

Ask: How about this molecule: C=CCC(OC(C)=O)[C@@H]1[C@@H](N(Cc2ccc(-c3cccc(C(F)(F)F)c3)o2)C(=O)Cc2ccc(F)cc2)c2cc(OCCCO)ccc2N1C(=O)c1ccc2ccccc2c1 (some centres undefined)
Result: -0.314

Ask: How about this molecule: O=C1O[C@H](c2ccccc2)[C@H](c2ccccc2)N2[C@H]1[C@@H](C(=O)NC[C@H](O)c1ccccc1)[C@]1(C(=O)Nc3ccc(C#CCCO)cc31)[C@H]2c1ccccc1OCCO
Result: -0.24

Ask: How about this molecule: COc1ccc(CC[C@H](O)c2cccc(OCC(=O)OC(C)(C)C)c2)cc1
Result: 0.42
